biological target: UniProt:P14842; assay: Binding affinity for 5-HT 2A in rat […]; type: tissue-based
Sequence (P14842 whole entry): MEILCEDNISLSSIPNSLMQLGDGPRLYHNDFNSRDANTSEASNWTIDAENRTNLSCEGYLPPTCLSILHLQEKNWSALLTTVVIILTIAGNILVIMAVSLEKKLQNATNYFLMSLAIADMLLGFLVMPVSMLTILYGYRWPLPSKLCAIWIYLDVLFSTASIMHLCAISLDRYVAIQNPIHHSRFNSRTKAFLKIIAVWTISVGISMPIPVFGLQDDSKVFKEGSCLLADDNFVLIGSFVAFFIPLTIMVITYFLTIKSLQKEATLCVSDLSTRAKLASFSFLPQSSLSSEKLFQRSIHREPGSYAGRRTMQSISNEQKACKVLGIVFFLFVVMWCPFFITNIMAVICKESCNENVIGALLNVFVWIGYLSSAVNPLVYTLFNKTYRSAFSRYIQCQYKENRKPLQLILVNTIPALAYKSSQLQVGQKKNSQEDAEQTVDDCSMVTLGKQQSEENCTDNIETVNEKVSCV
Below, each entry is listed alongside its reported pKi.
// pKi is dimensionless: -log10 of concentration (M)

# count of solved cases: 5
1) COc1ccc(CC2NCCc3c2[nH]c2ccccc32)cc1OC (stereo not drawn)
7.18
2) COc1ccc(CC2NCCc3c2[nH]c2ccc(C)cc32)c(Cl)c1OC (stereo not drawn)
7.71
3) COc1ccc(CC2NCCc3c2[nH]c2c(Br)c(C)ccc32)cc1OC (stereo not drawn)
8.53
4) COc1ccc(CC2NCCc3c2[nH]c2c(C)c(C)ccc32)cc1OC (stereo not drawn)
8.06
5) COc1ccc(CC2NCCc3c2[nH]c2ccc(C)cc32)c(Br)c1OC (stereo not drawn)
7.78

## Input Report pKi for COc1ccc(CC2NCCc3c2[nH]c2ccc(C)cc32)cc1OC (stereo not drawn) please.
## Output 7.65

## Input Value lookup for pKi; key = COc1ccc(CC2NCCc3c2[nH]c2cc(C)c(C)cc32)cc1OC (stereo not drawn)
## Output 8.33

---

molecular target: 5-hydroxytryptamine receptor 2B (Rattus norvegicus) (UniProt P30994); experiment: Binding affinity analysed for 5-HT 2B receptor in rat stomach fundus; assay type: tissue-based
Sequence (P30994 whole entry): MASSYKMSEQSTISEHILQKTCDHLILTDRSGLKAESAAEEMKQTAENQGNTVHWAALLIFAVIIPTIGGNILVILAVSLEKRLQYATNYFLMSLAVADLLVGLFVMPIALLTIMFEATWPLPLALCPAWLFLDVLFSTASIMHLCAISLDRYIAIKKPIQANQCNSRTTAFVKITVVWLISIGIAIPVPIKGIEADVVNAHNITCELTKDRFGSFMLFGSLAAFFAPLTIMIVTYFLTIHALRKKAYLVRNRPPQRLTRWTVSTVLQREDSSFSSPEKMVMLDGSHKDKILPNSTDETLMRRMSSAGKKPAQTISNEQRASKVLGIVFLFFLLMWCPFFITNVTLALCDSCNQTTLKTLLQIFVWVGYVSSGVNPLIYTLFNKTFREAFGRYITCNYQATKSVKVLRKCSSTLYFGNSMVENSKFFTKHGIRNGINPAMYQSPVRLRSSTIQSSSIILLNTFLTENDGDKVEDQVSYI
MEASURED_PROPERTY: -Log KB
Form: value (number only, do not type unit).

1. COc1ccc(CC2NCCc3c2[nH]c2ccc(OCc4ccccc4)cc32)cc1OC (stereo unspecified)
6.73
2. COc1ccc(CC2NCCc3c2[nH]c2ccc(Br)cc32)cc1OC (stereo unspecified)
8.8
3. Cn1ccc2cc3c(cc21)CCN3C(=O)Nc1cccnc1
8.48

## Input Fill in: -Log KB of COc1ccc(CC2NCCc3c2[nH]c2c(C)c(C)ccc32)cc1OC (stereo unspecified) is ___
## Output 10.1

## Input Would you kindly share the measured -Log KB for COc1ccc(CC2NCCc3c2[nH]c2ccc(SC)cc32)cc1OC (stereo unspecified) ?
## Output 9.56

## Input Given Cn1ccc2cc(NC(=O)Nc3cccnc3)ccc21 , state its recorded -Log KB.
## Output 7.4

## Input Endpoint output: -Log KB of CCCc1ccc2[nH]c3c(c2c1)CCNC3Cc1ccc(OC)c(OC)c1 (stereo unspecified) . Value?
## Output 8.64

## Input Need -Log KB, item Cc1ccc2[nH]c3c(c2c1)CCNC3Cc1cc(F)cc(F)c1 (stereo unspecified)
## Output 9.05

## Input // lookup -Log KB for c1ccc2c3c([nH]c2c1)[C@@H]1C[C@@H]2CCCC[C@H]2CN1CC3
## Output 7.26

## Input I'd like to know its -Log KB. The compound in question is Clc1ccc2c(c1)C1CCNC(Cc3cccc4ccccc34)C1N2 (stereo unspecified)
## Output 9.16

---

target: 5-hydroxytryptamine receptor 2B (Rattus norvegicus) (UniProt P30994); experiment: Binding affinity analysed for 5-HT 2B receptor in rat stomach fundus; format: tissue-based
MEASURED_PROPERTY: -Log KB
Just the number, please, no unit after it.

# annotated cases, reported -Log KB shown
1. Cc1cc(NC(=O)Nc2ccc3c(ccn3C)c2)sn1
7.95
2. Cc1ccc2[nH]c3c(c2c1)CCN(C)C3Cc1cccc2ccccc12 (stereo unspecified)
7.52
3. COc1cc(CC2NCCc3c2[nH]c2ccccc32)cc(OC)c1OC (stereo unspecified)
8.1
4. COc1ccc(CC2NCCc3c2[nH]c2c(F)cc(F)cc32)cc1OC (stereo unspecified)
9.6
5. COc1cc(CC2NCCc3c2[nH]c2ccc(C)cc32)cc([N+](=O)[O-])c1OC (stereo unspecified)
8.55
6. COc1ccc(CC2NCCc3c2[nH]c2c3ccc3ccccc32)cc1OC (stereo unspecified)
9.22
7. COc1ccc(CC2NCCc3c2[nH]c2ccccc32)cc1OC (stereo unspecified)
9.17

## Input Test system 5-hydroxytryptamine receptor 2B (Rattus norvegicus) (UniProt P30994); read-out -Log KB; what value for CCc1ccc2[nH]c3c(c2c1)CCNC3Cc1ccc(OC)c(OC)c1 (stereo unspecified) ?
## Output 9.46

---

species on record: Rattus norvegicus; assay: Relative binding to serotonin receptors 5-HT-2B to 5-HT2C (Ratio of […] Ki)
Please note: true (1) applies when Ratio is 100 or greater, and false (0) applies otherwise.

1. COc1ccc(CC2NCCc3c2[nH]c2ccc(C)cc32)c(Br)c1OC (stereo not given)
false (0)
2. COc1ccc(CC2NCCc3c2[nH]c2c(Br)c(C)ccc32)cc1OC (stereo not given)
false (0)
3. Cn1ccc2cc(NC(=O)Nc3cccnc3)ccc21
false (0)

Here's the next entry for you.
## Input Entry COc1ccc(CC2NCCc3c2[nH]c2ccccc32)cc1OC (stereo not given) : is its Ratio no less than 100?
## Output true (1)

---

-Log KB values for the compounds below.
biological target: 5-hydroxytryptamine receptor 2B (Rattus norvegicus); assay: Binding affinity analysed for 5-HT 2B receptor in rat stomach fundus; type: tissue-based

1. COc1ccc(CC2NCCc3c2[nH]c2ccc(C4CCCCC4)cc32)cc1OC (stereo not drawn)
< 7.5

## Input Give the reported -Log KB for c1ccc(CC2NCCc3c2[nH]c2ccccc32)cc1 (stereo not drawn) (system: 5-hydroxytryptamine receptor 2B (Rattus norvegicus)).
## Output 7.61

## Input Provide the documented -Log KB with 5-hydroxytryptamine receptor 2B (Rattus norvegicus) as the system for COc1ccc(CC2NCCc3c2[nH]c2ccc(F)cc32)cc1OC (stereo not drawn)
## Output 8.49

## Input Return -Log KB measured with 5-hydroxytryptamine receptor 2B (Rattus norvegicus) given this compound: CCCCc1ccc2[nH]c3c(c2c1)CCNC3Cc1ccc(OC)c(OC)c1 (stereo not drawn)
## Output < 7.5

## Input Given the entry c1ccc2c(CC3NCCc4c3[nH]c3ccccc43)cccc2c1 (stereo not drawn) , what -Log KB was observed with 5-hydroxytryptamine receptor 2B (Rattus norvegicus)?
## Output 9.35

## Input Form: Entry = COc1ccc(CC2NCCc3c2[nH]c2ccc(I)cc32)cc1OC (stereo not drawn) | System = 5-hydroxytryptamine receptor 2B (Rattus norvegicus) | -Log KB = ____
## Output 9.52

## Input For the record COC(=O)[C@@H]1[C@H]2C[C@H]3c4[nH]c5ccccc5c4CCN3C[C@@H]2CC[C@@H]1O , what value of -Log KB is listed for 5-hydroxytryptamine receptor 2B (Rattus norvegicus)?
## Output 6.92

## Input Param readout = -Log KB; param system = 5-hydroxytryptamine receptor 2B (Rattus norvegicus); param query = COc1ccc(CC2(C)NCCc3c2[nH]c2ccc(C)cc32)cc1OC (stereo not drawn) ; response: value
## Output < 7.52

## Input Request: -Log KB, test system 5-hydroxytryptamine receptor 2B (Rattus norvegicus), entry COc1ccc(CC2NCCc3c2[nH]c2cc(C)c(C)cc32)cc1OC (stereo not drawn)
## Output 9.71

## Input GET /values?readout=-Log KB&system=5-hydroxytryptamine receptor 2B (Rattus norvegicus)&item= COc1ccc(CC2NCCc3c2[nH]c2ccccc32)c(Cl)c1OC (stereo not drawn)
## Output 9.27

## Input Test system 5-hydroxytryptamine receptor 2B (Rattus norvegicus); read-out -Log KB; what value for COc1cc(CC2NCCc3c2[nH]c2ccc(C)cc32)cc(I)c1OC (stereo not drawn) ?
## Output 8.12

## Input Query for 5-hydroxytryptamine receptor 2B (Rattus norvegicus): what -Log KB does the record show for COc1ccc2[nH]c3c(c2c1)CCNC3Cc1ccc(OC)c(OC)c1 (stereo not drawn) ?
## Output 8.48

## Input Identify the measured -Log KB of COc1cccc2c1NC1C(Cc3cccc4ccccc34)NCCC21 (stereo not drawn) for 5-hydroxytryptamine receptor 2B (Rattus norvegicus).
## Output 9.72

## Input Any idea what -Log KB came out for COc1ccc(CC2NCCc3c2[nH]c2ccc(Cl)cc32)cc1OC (stereo not drawn) on 5-hydroxytryptamine receptor 2B (Rattus norvegicus)?
## Output 8.36

## Input So what -Log KB did COc1ccc(CCC2NCCc3c2[nH]c2ccccc32)cc1OC (stereo not drawn) get with 5-hydroxytryptamine receptor 2B (Rattus norvegicus)?
## Output 7.07

## Input Form: Entry = Cc1ccc2[nH]c3c(c2c1)CCNC3Cc1cccc(C(F)(F)F)c1 (stereo not drawn) | System = 5-hydroxytryptamine receptor 2B (Rattus norvegicus) | -Log KB = ____
## Output 8.91

## Input Notebook: pull reported -Log KB for 5-hydroxytryptamine receptor 2B (Rattus norvegicus), entry COc1ccc(CC2NCCc3c2[nH]c2ccccc32)cc1 (stereo not drawn)
## Output 8.09

## Input Any idea what -Log KB came out for COc1ccc(CC2NCCc3c2[nH]c2ccc(C)cc32)cc1O (stereo not drawn) on 5-hydroxytryptamine receptor 2B (Rattus norvegicus)?
## Output 9.23

## Input Record COc1ccc(CC2c3[nH]c4ccc(C)cc4c3CCN2C)c(Cl)c1OC (stereo not drawn) : what is its -Log KB with 5-hydroxytryptamine receptor 2B (Rattus norvegicus)?
## Output 8.4

## Input API: value(readout= -Log KB, system= 5-hydroxytryptamine receptor 2B (Rattus norvegicus), query= COc1ccc(CC2NCCc3c2[nH]c2c(Br)cc(C)cc32)cc1OC (stereo not drawn) )
## Output 8.92

## Input Identify the measured -Log KB of COc1ccc(CC2NCCc3c2[nH]c2ccc(C(C)C)cc32)cc1OC (stereo not drawn) for 5-hydroxytryptamine receptor 2B (Rattus norvegicus).
## Output 8.5

## Input Form field - read-out: -Log KB; system: 5-hydroxytryptamine receptor 2B (Rattus norvegicus); submitted item: Cc1ccc2[nH]c3c(c2c1)CCNC3CC1CCCCC1 (stereo not drawn)
## Output 8.32

## Input Find the measured -Log KB: item COc1ccc(CC2NCCc3c2[nH]c2ccc(C)cc32)cc1F (stereo not drawn) , target or system 5-hydroxytryptamine receptor 2B (Rattus norvegicus).
## Output 9.42
